Target: T1, human MSLN-FL-his protein (human, UniProt Q13421 296-580)
T1 construct: made in HEK293E cells, purified on nickel column; also called hMSLN-FL-his; human MSLN full-length protein; not shown: His tag
T1 sequence (Q13421 other isoform, or with tags, fused parts or gaps): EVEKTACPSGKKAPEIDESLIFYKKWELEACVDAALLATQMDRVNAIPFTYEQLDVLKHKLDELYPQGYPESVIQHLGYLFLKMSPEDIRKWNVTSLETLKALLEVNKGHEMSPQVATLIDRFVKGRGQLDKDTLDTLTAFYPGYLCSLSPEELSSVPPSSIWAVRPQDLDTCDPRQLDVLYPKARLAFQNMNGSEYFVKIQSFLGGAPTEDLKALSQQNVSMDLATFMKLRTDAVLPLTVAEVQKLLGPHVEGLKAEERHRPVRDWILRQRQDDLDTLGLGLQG
Assay: competitive ELISA; row Tab021; note: test concentration or dose not given here
value.type: competition rate (%)
A number alone suffices; assume %.

Returns the measured competition rate for the input binder. Input: S009-F8-8.22 (antibody, human IgG1, kappa, V domains shown, human-murine chimeric antibody, human IgG1/kappa constant regions) VH: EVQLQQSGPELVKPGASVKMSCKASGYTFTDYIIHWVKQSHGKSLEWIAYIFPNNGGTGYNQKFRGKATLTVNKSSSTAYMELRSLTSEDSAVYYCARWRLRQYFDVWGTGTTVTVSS VL: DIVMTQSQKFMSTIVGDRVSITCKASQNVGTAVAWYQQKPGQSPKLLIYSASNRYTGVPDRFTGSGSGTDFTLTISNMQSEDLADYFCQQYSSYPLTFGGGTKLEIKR
12.6

What about this binder? S009-F8-33.12 (antibody, human IgG1, kappa, V domains shown, human-murine chimeric antibody, human IgG1/kappa constant regions) VH: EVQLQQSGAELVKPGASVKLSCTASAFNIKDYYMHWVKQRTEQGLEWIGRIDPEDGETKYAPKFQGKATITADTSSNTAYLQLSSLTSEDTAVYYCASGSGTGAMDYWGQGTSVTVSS VL: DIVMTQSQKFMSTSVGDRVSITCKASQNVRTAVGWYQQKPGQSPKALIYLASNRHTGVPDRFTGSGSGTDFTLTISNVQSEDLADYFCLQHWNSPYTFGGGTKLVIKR
9.4
